As shown below, each of these sequences has a reported RUNX1 binding intensity value.
- ASSAYED_SYSTEM: RUNX1 (UniProt Q01196)
- Sequence (Q01196 whole entry): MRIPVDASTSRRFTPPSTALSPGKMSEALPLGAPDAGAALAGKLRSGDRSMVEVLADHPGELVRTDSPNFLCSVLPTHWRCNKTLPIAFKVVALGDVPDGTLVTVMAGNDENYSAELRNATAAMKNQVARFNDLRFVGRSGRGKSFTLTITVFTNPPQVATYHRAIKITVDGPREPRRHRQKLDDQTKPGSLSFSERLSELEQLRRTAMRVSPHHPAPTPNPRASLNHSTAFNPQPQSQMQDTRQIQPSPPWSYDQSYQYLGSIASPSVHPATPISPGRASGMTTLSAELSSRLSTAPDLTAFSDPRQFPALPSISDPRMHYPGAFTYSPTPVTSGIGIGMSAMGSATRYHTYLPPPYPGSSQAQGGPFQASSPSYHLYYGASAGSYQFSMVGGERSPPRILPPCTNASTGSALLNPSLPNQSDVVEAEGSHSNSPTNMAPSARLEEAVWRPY
- TEST_DESCRIPTION: RUNX1 binding intensity (PBM fluorescence), RUNX1 alone (arbitrary fluorescence units); higher = stronger binding
- CONDITION_LABEL: RUNX1 concentration 2 nM; ETS1 concentration 0 nM

PRIMARY_SEQUENCE: AACAGCTTCCGGCACGGGGGCTGTGGTTGTGTTGGA
RUNX1 binding intensity: 790
//
PRIMARY_SEQUENCE: TGCCACATCCTGCCCCTCCCCAGGTCTAACCACCAA
RUNX1 binding intensity: 1260
//
PRIMARY_SEQUENCE: GCTTGCTCCCACAGGAAACCGCAGGCTTCGGGCACA
RUNX1 binding intensity: 7370
//
PRIMARY_SEQUENCE: CATTTCAGTCCAGGATGTGGGTGCACACACCGCTTC
RUNX1 binding intensity: 798
//
PRIMARY_SEQUENCE: GCCCTGACCCACATCCTGCCGCAGCCTGCTTGTCCT
RUNX1 binding intensity: 1520
//
PRIMARY_SEQUENCE: ACAACCCGGAAGTTGGCGCAGCGCGGTTGCCAATGG
RUNX1 binding intensity: 671
//
PRIMARY_SEQUENCE: CTACAGGAAGTTCGAACTGGGCGGAGCCCACCGCAG
RUNX1 binding intensity: 658
//
PRIMARY_SEQUENCE: GGAATTTCTTTTTCCGGTCCCGCAGGGTCAGCTGAG
RUNX1 binding intensity: 735
//
PRIMARY_SEQUENCE: CGGCGCGGCGGACGTTGCTGCGGTAGGACGTGCCCG
RUNX1 binding intensity: 838
//
PRIMARY_SEQUENCE: TGCCTCACCTCACATCCGTTTGTGGCTGCCGAGTGC
RUNX1 binding intensity: 950
//
PRIMARY_SEQUENCE: TGGCTTATCCTAACAGGAAGTGGTTTATCTGATCCT
RUNX1 binding intensity: 767
//
PRIMARY_SEQUENCE: TGGCGGGAGAACTTCCCCCTGTGCGGTCGCGACGTG
RUNX1 binding intensity: 738

* * *

- ASSAYED_SYSTEM: ETS1 (UniProt P14921)
- Sequence: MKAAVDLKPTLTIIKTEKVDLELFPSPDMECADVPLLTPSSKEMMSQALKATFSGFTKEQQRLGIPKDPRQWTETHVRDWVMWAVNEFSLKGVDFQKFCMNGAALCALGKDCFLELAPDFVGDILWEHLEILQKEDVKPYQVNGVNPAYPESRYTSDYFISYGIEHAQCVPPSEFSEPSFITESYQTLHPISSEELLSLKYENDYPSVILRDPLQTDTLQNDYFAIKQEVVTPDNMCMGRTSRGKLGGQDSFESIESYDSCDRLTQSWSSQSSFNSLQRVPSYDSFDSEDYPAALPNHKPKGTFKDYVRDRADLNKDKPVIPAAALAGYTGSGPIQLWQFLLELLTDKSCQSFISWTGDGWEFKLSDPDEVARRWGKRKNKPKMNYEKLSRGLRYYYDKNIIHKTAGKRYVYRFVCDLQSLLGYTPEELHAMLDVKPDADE
- TEST_DESCRIPTION: ETS1 binding intensity (PBM fluorescence), ETS1 alone (arbitrary fluorescence units); higher = stronger binding
- CONDITION_LABEL: ETS1 concentration 1 nM; RUNX1 concentration 0 nM
Outcome label depends on ETS1 binding intensity relative to 500: at/above gives Y, below gives N.

PRIMARY_SEQUENCE: GGCAACCTGAGCTTCCGTGTAAAACCACAGTGTGAC
CLASS_NAME: N

PRIMARY_SEQUENCE: CGGTTCCGGCGCCTGAAGTTTTAGCTGCGGTGGCGG
CLASS_NAME: N

PRIMARY_SEQUENCE: AGCGGCCGAAGGAAGTGACGTTTGCGGCAGTAAGGC
CLASS_NAME: Y

PRIMARY_SEQUENCE: AGCCGGAGGCGGAAGGAGCAGCGCTACCGCAGCGTC
CLASS_NAME: Y

PRIMARY_SEQUENCE: GAGGGGGAGGTTTCCGGGGCCTGTGGTTACTACACT
CLASS_NAME: N
